Organism: Rattus norvegicus
Experiment: Open TG-GATES - Regimen: Single
Format: toxicity, organism-based, Sprague-Dawley
Set-up: regimen Single, gender Male, age 6 weeks
Conditions: in vivo, po, 0 mg/kg, 3 h, tissue Plasma, route gavage, dose level Control
reported.metric: TC (mg/dL)
Reply numerically in mg/dL, unit not repeated.

For the compound shown here, Clc1c(Cl)c(Cl)c(Cl)c(Cl)c1Cl , give the reported TC. 76.8

====

Species on record: Rattus norvegicus
Test: Open TG-GATES - Regimen: Single
Type: toxicity, organism-based, Sprague-Dawley
Set-up: regimen Single, gender Male, age 6 weeks
Conditions: in vivo, po, 0 mg/kg, 6 h, tissue Plasma, route gavage, dose level Control
One threshold, 200 IU/L, splits the recorded LDH values: lower ones are Yes, equal or higher ones are No.

Worked cases, answers included:
1. C1CCC(C(CC2CCCCN2)C2CCCCC2)CC1 (stereo unspecified) [PERHEXILINE]	No
2. CN1C(C(=O)Nc2ccccn2)=C(O)c2sc(Cl)cc2S1(=O)=O [LORNOXICAM]	No
3. CCOC(=O)[C@H](CCc1ccccc1)N[C@@H](C)C(=O)N1CCC[C@H]1C(=O)O	Yes
4. CC(=O)Nc1nnc(S(N)(=O)=O)s1 [ACETAZOLAMIDE]	Yes
5. C#C[C@]1(O)CC[C@H]2[C@@H]3CCC4=Cc5oncc5C[C@]4(C)[C@H]3CC[C@@]21C [DANAZOL]	Yes

Identify whether the compound CC(CN1c2ccccc2Sc2ccccc21)N(C)C (stereo unspecified) [PROMETHAZINE] records LDH below 200 IU/L. No

====

Species on record: Rattus norvegicus
Assay: Open TG-GATES - Regimen: Single
Type: toxicity, organism-based, Sprague-Dawley
Parameters: regimen Single, gender Male, age 6 weeks
Conditions: in vivo, po, 0 mg/kg, 9 h, tissue Blood, route gavage, dose level Control
The entries below are paired with their reported Neu.
Answer with the number, then the unit.

1) Cc1cccc(Nc2ccccc2C(=O)O)c1C	17.2%

For the molecule shown here, CN1C(C(=O)Nc2ccccn2)=C(O)c2sc(Cl)cc2S1(=O)=O , give the reported Neu. 20.4%

For the molecule shown here, COc1cc([C@@H]2c3cc4c(cc3[C@@H](O[C@@H]3O[C@@H]5CO[C@@H](C)O[C@H]5[C@H](O)[C@H]3O)[C@H]3COC(=O)[C@H]23)OCO4)cc(OC)c1O [ETOPOSIDE] , give the reported Neu. 15%

For the molecule shown here, CN(C)[C@@H]1C(O)=C(C(N)=O)C(=O)[C@@]2(O)C(O)=C3C(=O)c4c(O)cccc4[C@@](C)(O)[C@H]3C[C@@H]12 , give the reported Neu. 15.4%

For the molecule shown here, C#C[C@]1(O)CC[C@H]2[C@@H]3CCC4=Cc5oncc5C[C@]4(C)[C@H]3CC[C@@]21C , give the reported Neu. 13.6%

For the molecule shown here, Clc1c(Cl)c(Cl)c(Cl)c(Cl)c1Cl , give the reported Neu. 19.8%

For the molecule shown here, C1CCC(C(CC2CCCCN2)C2CCCCC2)CC1 (centres undefined) , give the reported Neu. 20.4%

For the molecule shown here, CCOC(=O)[C@H](CCc1ccccc1)N[C@@H](C)C(=O)N1CCC[C@H]1C(=O)O , give the reported Neu. 12.8%

For the molecule shown here, CC(CN1c2ccccc2Sc2ccccc21)N(C)C (centres undefined) , give the reported Neu. 15.6%

====

Organism: Rattus norvegicus
Assay: Open TG-GATES - Regimen: Daily Repeat
Type: toxicity, organism-based, Sprague-Dawley
Set-up: regimen Daily Repeat, gender Male, age 6 weeks
Settings: in vivo, po, 0 mg/kg, […], tissue Plasma, route gavage, dose level Control, time 7 day
reported.metric: BUN (mg/dL)
Reply numerically in mg/dL, unit not repeated.

Worked cases, answers included:
1. Cc1cccc(Nc2ccccc2C(=O)O)c1C	14.8
2. CC(=O)Nc1nnc(S(N)(=O)=O)s1 [ACETAZOLAMIDE]	22
3. CC(CN1c2ccccc2Sc2ccccc21)N(C)C (stereo not given)	17.6
4. CCOC(=O)[C@H](CCc1ccccc1)N[C@@H](C)C(=O)N1CCC[C@H]1C(=O)O	18.2

For the compound shown here, CN1C(C(=O)Nc2ccccn2)=C(O)c2sc(Cl)cc2S1(=O)=O , give the reported BUN. 14

====

Organism: Rattus norvegicus
Test: Open TG-GATES - Regimen: Single
Assay type: toxicity, organism-based, Sprague-Dawley
Set-up: regimen Single, gender Male, age 6 weeks
Details: in vivo, po, 0 mg/kg, 24 h, tissue Blood, route gavage, dose level Control
reported.metric: WBC (x10_2/uL)
Reply numerically in x10_2/uL, unit not repeated.

1) Clc1c(Cl)c(Cl)c(Cl)c(Cl)c1Cl	90.7
2) CC(=O)Nc1nnc(S(N)(=O)=O)s1 [ACETAZOLAMIDE]	66.7
3) O=[N+]([O-])c1ccc2c(c1)Cc1ccccc1-2	96.1

For the molecule shown here, CC(CN1c2ccccc2Sc2ccccc21)N(C)C (stereo unspecified) , give the reported WBC. 130.1

For the molecule shown here, CCOC(=O)[C@H](CCc1ccccc1)N[C@@H](C)C(=O)N1CCC[C@H]1C(=O)O , give the reported WBC. 114

For the molecule shown here, C1CCC(C(CC2CCCCN2)C2CCCCC2)CC1 (stereo unspecified) , give the reported WBC. 89.3

For the molecule shown here, CN(C)[C@@H]1C(O)=C(C(N)=O)C(=O)[C@@]2(O)C(O)=C3C(=O)c4c(O)cccc4[C@@](C)(O)[C@H]3C[C@@H]12 , give the reported WBC. 81.9

For the molecule shown here, COc1cc([C@@H]2c3cc4c(cc3[C@@H](O[C@@H]3O[C@@H]5CO[C@@H](C)O[C@H]5[C@H](O)[C@H]3O)[C@H]3COC(=O)[C@H]23)OCO4)cc(OC)c1O [ETOPOSIDE] , give the reported WBC. 94.9

For the molecule shown here, CN1C(C(=O)Nc2ccccn2)=C(O)c2sc(Cl)cc2S1(=O)=O , give the reported WBC. 101.7

For the molecule shown here, C#C[C@]1(O)CC[C@H]2[C@@H]3CCC4=Cc5oncc5C[C@]4(C)[C@H]3CC[C@@]21C , give the reported WBC. 102.5

For the molecule shown here, Cc1cccc(Nc2ccccc2C(=O)O)c1C , give the reported WBC. 80

====

Species: Rattus norvegicus
Assay: Open TG-GATES - Regimen: Single
Type: toxicity, organism-based, Sprague-Dawley
Set-up: regimen Single, gender Male, age 6 weeks
Details: in vivo, po, 0 mg/kg, 3 h, tissue Plasma, route gavage, dose level Control
reported.metric: IP (mg/dL)
Reply numerically in mg/dL, unit not repeated.

Worked cases, answers included:
1) Cc1cccc(Nc2ccccc2C(=O)O)c1C	9
2) C#C[C@]1(O)CC[C@H]2[C@@H]3CCC4=Cc5oncc5C[C@]4(C)[C@H]3CC[C@@]21C	7.9
3) Clc1c(Cl)c(Cl)c(Cl)c(Cl)c1Cl	8.4
4) CN1C(C(=O)Nc2ccccn2)=C(O)c2sc(Cl)cc2S1(=O)=O	8.6
5) C1CCC(C(CC2CCCCN2)C2CCCCC2)CC1 (configuration not stated)	7.8

For the molecule shown here, CC(CN1c2ccccc2Sc2ccccc21)N(C)C (configuration not stated) , give the reported IP. 8.1

For the molecule shown here, CC(=O)Nc1nnc(S(N)(=O)=O)s1 [ACETAZOLAMIDE] , give the reported IP. 8.2

====

Species: Rattus norvegicus
Test: Open TG-GATES - Regimen: Daily Repeat
Type: toxicity, organism-based, Sprague-Dawley
Design: regimen Daily Repeat, gender Male, age 6 weeks
Conditions: in vivo, po, 0 mg/kg, […], tissue Plasma, route gavage, dose level Control, time 7 day
reported.metric: TC
Answer with the number, then the unit.

1) CN(C)[C@@H]1C(O)=C(C(N)=O)C(=O)[C@@]2(O)C(O)=C3C(=O)c4c(O)cccc4[C@@](C)(O)[C@H]3C[C@@H]12	83.4 mg/dL
2) Clc1c(Cl)c(Cl)c(Cl)c(Cl)c1Cl	78.2 mg/dL
3) Cc1cccc(Nc2ccccc2C(=O)O)c1C	71 mg/dL

For the compound shown here, CC(=O)Nc1nnc(S(N)(=O)=O)s1 [ACETAZOLAMIDE] , give the reported TC. 63.2 mg/dL

For the compound shown here, C#C[C@]1(O)CC[C@H]2[C@@H]3CCC4=Cc5oncc5C[C@]4(C)[C@H]3CC[C@@]21C , give the reported TC. 80.4 mg/dL

For the compound shown here, CC(CN1c2ccccc2Sc2ccccc21)N(C)C (centres undefined) , give the reported TC. 64.4 mg/dL

For the compound shown here, CCOC(=O)[C@H](CCc1ccccc1)N[C@@H](C)C(=O)N1CCC[C@H]1C(=O)O , give the reported TC. 78.2 mg/dL

For the compound shown here, C1CCC(C(CC2CCCCN2)C2CCCCC2)CC1 (centres undefined) , give the reported TC. 79.8 mg/dL

For the compound shown here, CN1C(C(=O)Nc2ccccn2)=C(O)c2sc(Cl)cc2S1(=O)=O , give the reported TC. 70.8 mg/dL

Values were extracted from ChEMBL document CHEMBL3885861.
